Target: potassium ion channel hERG (Homo sapiens, UniProt Q12809)
Sequence (Q12809 whole entry): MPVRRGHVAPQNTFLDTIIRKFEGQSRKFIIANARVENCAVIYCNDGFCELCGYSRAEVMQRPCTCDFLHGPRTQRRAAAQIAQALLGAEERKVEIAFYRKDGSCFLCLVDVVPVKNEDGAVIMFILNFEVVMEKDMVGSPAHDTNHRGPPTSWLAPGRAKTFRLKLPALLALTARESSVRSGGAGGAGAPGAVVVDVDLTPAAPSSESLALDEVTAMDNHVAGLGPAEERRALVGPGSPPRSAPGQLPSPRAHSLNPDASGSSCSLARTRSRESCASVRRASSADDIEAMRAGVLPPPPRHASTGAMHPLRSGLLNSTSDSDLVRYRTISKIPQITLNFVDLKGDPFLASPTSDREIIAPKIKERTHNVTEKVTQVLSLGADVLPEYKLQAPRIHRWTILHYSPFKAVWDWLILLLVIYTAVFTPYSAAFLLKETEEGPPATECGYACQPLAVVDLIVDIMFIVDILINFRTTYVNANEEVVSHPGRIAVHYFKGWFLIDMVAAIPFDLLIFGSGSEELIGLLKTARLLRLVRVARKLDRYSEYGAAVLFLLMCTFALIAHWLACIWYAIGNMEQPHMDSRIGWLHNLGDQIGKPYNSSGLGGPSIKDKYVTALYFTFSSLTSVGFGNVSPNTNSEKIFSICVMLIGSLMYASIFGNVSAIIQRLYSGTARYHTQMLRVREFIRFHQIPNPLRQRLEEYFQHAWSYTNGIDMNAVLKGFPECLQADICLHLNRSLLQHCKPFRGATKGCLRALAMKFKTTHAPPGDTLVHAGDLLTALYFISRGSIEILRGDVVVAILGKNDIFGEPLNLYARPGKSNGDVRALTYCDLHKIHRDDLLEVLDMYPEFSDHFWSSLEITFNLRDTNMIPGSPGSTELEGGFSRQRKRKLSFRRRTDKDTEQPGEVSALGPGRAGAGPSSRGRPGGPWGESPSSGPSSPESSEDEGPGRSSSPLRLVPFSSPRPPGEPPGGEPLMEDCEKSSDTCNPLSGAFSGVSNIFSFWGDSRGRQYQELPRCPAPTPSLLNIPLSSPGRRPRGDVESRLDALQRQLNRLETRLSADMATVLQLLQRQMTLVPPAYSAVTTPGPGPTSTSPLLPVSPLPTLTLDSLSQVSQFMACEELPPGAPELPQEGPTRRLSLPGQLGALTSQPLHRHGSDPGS
Test: Assay 5 hERG assay (patch clamp, CHO cells over-expressing hERG)
Details: SyncroPatch 384PE, room temperature, geometric mean, read-out: Assay 5 (hERG Hu CHO if EPh CR-Syncro) GMean IC50
Reported Metric: IC50 (µM)
Kindly provide the numeric value in µM only, without the unit symbol.

Answered examples (2):
>>> recorded_number("N#Cc1ccc(=O)n(-c2ccc(N[C@H]3CC[C@H](Nc4ncc(C5CC5)nn4)C3)nc2)c1")
34.9
>>> recorded_number("Cc1cnc(N[C@H]2CC[C@H](Nc3ccc(-c4nc(C)oc4C)cn3)C2)nn1")
25.7

Item `Fc1cccc(F)c1-c1ccc(N[C@H]2CC[C@H](Nc3ncc(C4CC4)nn3)C2)nc1` has what recorded IC50?
3.4

Which IC50 value is on record for `O=c1ccc(OC(F)F)cn1-c1ccc(N[C@H]2CC[C@H](Nc3ncc(C4CC4)nn3)C2)nc1` ?
38.2

Item under review: `O=c1ccncn1-c1ccc(N[C@H]2CC[C@H](Nc3ncc(C4CC4)nn3)C2)nc1` . Reported IC50?
18.6

If you can, please state the reported IC50 value of `COc1ccccc1-c1ccc(N[C@H]2CC[C@H](Nc3ncc(C)nn3)C2)nc1` .
4.5

====

Target: potassium ion channel hERG (Homo sapiens, UniProt Q12809)
Test: Assay 5 hERG assay (patch clamp, CHO cells over-expressing hERG)
Conditions: SyncroPatch 384PE, room temperature, geometric mean, read-out: Assay 5 (hERG Hu CHO if EPh CR-Syncro) GMean IC50
Collected IC50 values appear next to each entry.

>>> result("Cc1cccn(-c2ccc(N[C@H]3CC[C@H](Nc4ncc(C(=O)NC5COC5)nn4)C3)nc2)c1=O [Example 155]")
"> 40.1 µM"
>>> result("Cc1cnc(N[C@H]2CC[C@H](Nc3ccc(-n4nc(C)nc4C)cn3)C2)nn1 [Example 313]")
"> 40.1 µM"
>>> result("Cc1cnc(N[C@H]2CC[C@H](Nc3ccc(-n4nc(Cl)ccc4=O)cn3)C2)nn1 [Example 222]")
"> 40.1 µM"

Pending compound:
I have this compound here, O=c1c(C(F)(F)F)cccn1-c1ccc(N[C@H]2CC[C@H](Nc3ncc(C4CC4)nn3)C2)nc1 [Example 51] , and I need its recorded IC50.
10.8 µM

====

Molecular target: PCSK9 (Homo sapiens, UniProt Q8NBP7, G670E/V474I)
Sequence (Q8NBP7 with tags, fused parts or gaps V474I/G670E): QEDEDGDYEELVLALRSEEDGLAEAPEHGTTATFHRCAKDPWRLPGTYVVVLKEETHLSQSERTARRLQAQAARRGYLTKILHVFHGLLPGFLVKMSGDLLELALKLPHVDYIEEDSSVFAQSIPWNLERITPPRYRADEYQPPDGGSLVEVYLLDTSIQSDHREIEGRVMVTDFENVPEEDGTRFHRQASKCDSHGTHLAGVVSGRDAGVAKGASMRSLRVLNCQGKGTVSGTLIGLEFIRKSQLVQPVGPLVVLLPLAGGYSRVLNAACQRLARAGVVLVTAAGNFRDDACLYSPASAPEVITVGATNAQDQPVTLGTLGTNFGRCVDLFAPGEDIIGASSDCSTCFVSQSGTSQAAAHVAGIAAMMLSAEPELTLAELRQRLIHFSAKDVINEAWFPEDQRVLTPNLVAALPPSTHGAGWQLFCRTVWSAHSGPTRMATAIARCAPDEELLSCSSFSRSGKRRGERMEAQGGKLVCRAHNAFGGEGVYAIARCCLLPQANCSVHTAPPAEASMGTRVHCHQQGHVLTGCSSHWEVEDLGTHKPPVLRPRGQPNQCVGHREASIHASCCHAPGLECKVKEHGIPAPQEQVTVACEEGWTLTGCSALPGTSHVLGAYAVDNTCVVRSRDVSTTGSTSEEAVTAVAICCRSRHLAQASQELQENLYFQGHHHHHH
Experiment: Assay 3 PCSK9 LDL-C uptake assay in HepG2 cells
Details: 125 nM PCSK9, pHrodo Red-LDL, read-out: Assay 3 LDL uptake potency
Excerpt: This assay measures for PCSK9 antagonist activity based on a test compound's capacity to restore LDL-C-uptake in HepG2 cells. The assay is based on exogenous PCSK9 and LDL-C complexed with a pH-sensitive dye. […] Inhibition of PCSK9 reduces LDLR degradation and the increased LDL-C uptake is quantified by fluorescence microscopy. […] • 1. […] Supernatant was discarded and the cell pellet resuspended in cell medium and counted with a Nucleocounter. […]
Reported Metric: EC50 (nM)
Form entry: value (nM) — number only.

>>> recorded_number("COc1cccn(-c2ccc(N[C@H]3CC[C@H](Nc4ncc(C(=O)NC5COC5)nn4)C3)nc2)c1=O")
100

What value of measured EC50 is listed for `Cc1cnc(N[C@H]2CC[C@H](Nc3ccc(-n4cc(C#N)ccc4=O)cn3)C2)nn1` ?
800

# get_value(readout='EC50', item= `Cn1c(=O)n(-c2ccc(N[C@H]3CC[C@H](Nc4ncc(C5CC5)nn4)C3)nc2)c2ccc(C(=O)O)cc21` )
100

What value of measured EC50 is listed for `Cc1cnc(N[C@H]2CC[C@H](Nc3ccc(-n4cccc(-c5cnn(C)c5)c4=O)cn3)C2)nn1` ?
100

Look at this compound and give its reported EC50. Cc1cnc(N[C@H]2CC[C@H](Nc3ccc(-n4cccc(C)c4=O)cn3)C2)nn1 (racemic) [Example 173]
100

Reported EC50, compound `Cn1c(=O)n(-c2ccc(N[C@H]3CC[C@H](Nc4ncc(C5CC5)nn4)C3)nc2)c2ccc(C#N)cc21` : ____
300

Which EC50 value is on record for `CN1CC(=O)N(c2ccc(N[C@H]3CC[C@H](Nc4ncc(C5CC5)nn4)C3)nc2)C1=O` ?
500

GET /values?readout=EC50&item= `O=c1ccncn1-c1ccc(N[C@H]2CC[C@H](Nc3ncc(C4CC4)nn3)C2)nc1`
300

GET /values?readout=EC50&item= `O=c1c(C(F)(F)F)cccn1-c1ccc(N[C@H]2CC[C@H](Nc3ncc(C4CC4)nn3)C2)nc1`
100

Item `Cc1cnc(N[C@H]2CC[C@H](Nc3ccc(-n4cccc(F)c4=O)cn3)C2)nn1` has what recorded EC50?
700

Entry `Cc1cnc(N[C@H]2CC[C@H](Nc3ccc(-n4cccc(OC(F)F)c4=O)cn3)C2)nn1` : reported EC50 = ?
100
